Recorded ED50 values for a group of compounds are listed next.
- System: Staph. aureus Smith
- testDetails: In vivo activity (oral, iv; ED50) against Staph. aureus Smith in mice
- experimentalParameters: Staphylococcus aureus, in Mus musculus, po, read-out: ED50 Staph Smith SOD

{"compound": "CCCN(CC(=O)Nc1cc(N(C)C)c2c(c1O)C(=O)C1=C(O)[C@]3(O)C(=O)C(C(N)=O)=C(O)[C@@H](N(C)C)[C@@H]3C[C@@H]1C2)C(=O)OCC(C)C", "resultComparator": ">", "ED50 / mg/kg": 32}
{"compound": "CCCCN(CC(=O)Nc1cc(N(C)C)c2c(c1O)C(=O)C1=C(O)[C@]3(O)C(=O)C(C(N)=O)=C(O)[C@@H](N(C)C)C3CC1C2)C(=O)OCOC(=O)c1ccc(C)cc1 (stereo partly drawn)", "resultComparator": "=", "ED50 / mg/kg": 16.1}
{"compound": "CCCCN(CC(=O)Nc1cc(N(C)C)c2c(c1O)C(=O)C1=C(O)[C@]3(O)C(=O)C(C(N)=O)=C(O)[C@@H](N(C)C)[C@@H]3C[C@@H]1C2)C(=O)OCOC(=O)CC(C)(C)C", "resultComparator": "=", "ED50 / mg/kg": 5.15}
{"compound": "CN(C)c1cc(NC(=O)CN(C(=O)OCOC(=O)c2ccc(N3CCCC3)cc2)C(C)(C)C)c(O)c2c1C[C@H]1C[C@H]3[C@H](N(C)C)C(O)=C(C(N)=O)C(=O)[C@@]3(O)C(O)=C1C2=O", "resultComparator": ">", "ED50 / mg/kg": 32}
{"compound": "CN(C)c1cc(NC(=O)CN(C(=O)OCOC(=O)CC2CCCC2)C(C)(C)C)c(O)c2c1C[C@H]1C[C@H]3[C@H](N(C)C)C(O)=C(C(N)=O)C(=O)[C@@]3(O)C(O)=C1C2=O", "resultComparator": ">", "ED50 / mg/kg": 16}
{"compound": "CCCCCCC(=O)OCOC(=O)N(CCC)CC(=O)Nc1cc(N(C)C)c2c(c1O)C(=O)C1=C(O)[C@]3(O)C(=O)C(C(N)=O)=C(O)[C@@H](N(C)C)[C@@H]3C[C@@H]1C2", "resultComparator": "=", "ED50 / mg/kg": 8.05}
{"compound": "Cc1ccc(C(=O)OCOC(=O)N(CC(=O)Nc2cc(N(C)C)c3c(c2O)C(=O)C2=C(O)[C@]4(O)C(=O)C(C(N)=O)=C(O)[C@@H](N(C)C)[C@@H]4C[C@@H]2C3)C(C)(C)C)cc1", "resultComparator": "=", "ED50 / mg/kg": 14}
{"compound": "CCCN(CC(=O)Nc1cc(N(C)C)c2c(c1O)C(=O)C1=C(O)[C@]3(O)C(=O)C(C(N)=O)=C(O)[C@@H](N(C)C)[C@@H]3C[C@@H]1C2)C(=O)OCOC(=O)c1ccsc1", "resultComparator": "=", "ED50 / mg/kg": 3.9}
{"compound": "CCCCN(CC(=O)Nc1cc(N(C)C)c2c(c1O)C(=O)C1=C(O)[C@]3(O)C(=O)C(C(N)=O)=C(O)[C@@H](N(C)C)[C@@H]3C[C@@H]1C2)C(=O)OCOC(=O)C(C)(C)C", "resultComparator": "=", "ED50 / mg/kg": 11}
